TGT: mouse CB1 receptor (Mus musculus, UniProt P47746)
Construct: radioligand displacement assay using mouse brain plasma membranes; from tissue; host or cells: mouse brain plasma membranes
Sequence (P47746 whole entry): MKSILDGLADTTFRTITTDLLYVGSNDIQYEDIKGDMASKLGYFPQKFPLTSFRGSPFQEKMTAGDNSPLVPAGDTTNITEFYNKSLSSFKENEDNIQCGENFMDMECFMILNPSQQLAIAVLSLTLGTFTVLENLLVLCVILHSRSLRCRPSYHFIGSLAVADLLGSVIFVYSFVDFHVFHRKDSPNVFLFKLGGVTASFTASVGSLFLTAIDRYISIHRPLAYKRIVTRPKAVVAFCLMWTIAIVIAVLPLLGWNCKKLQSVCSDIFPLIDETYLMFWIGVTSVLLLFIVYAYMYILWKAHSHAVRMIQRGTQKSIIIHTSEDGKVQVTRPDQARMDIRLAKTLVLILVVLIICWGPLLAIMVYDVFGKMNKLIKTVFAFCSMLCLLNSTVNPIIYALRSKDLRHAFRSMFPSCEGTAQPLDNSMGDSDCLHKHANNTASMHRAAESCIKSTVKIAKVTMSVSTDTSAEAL
ASSAY_METHOD_TEXT: radioligand displacement assay using mouse brain plasma membranes and 3H-CP55540
Format: binding
CONDITION_DETAILS: mouse brain plasma membranes, 3H-CP55540 as labeled ligand; read-out: Ki CB1
QUANTITY_KIND: Ki (nM)
Your answer should be a plain number; it is taken to be in nM.

Quick check: Ki of CC(=O)NC(=N)NC(=NS(=O)(=O)N1CCC(F)(F)CC1)N1CC(c2ccccc2)C(c2ccc(Cl)cc2)=N1 (stereo not shown) [MRI-1950] ?
1.2
